Reported ED50 values for the following compounds.
# System: Mus musculus
# Protocol: Effective dose required for agonistic activity upon intrathecal administration in mouse (n=10) tail flick assay
# Type: functional
Report only the number, with the unit nmol/mouse understood.

Name the recorded ED50 of the compound listed here: CN(C(=O)Cc1ccc(Cl)c(Cl)c1)[C@H](CN1CCCC1)c1cccc(NC(=O)CNC(=O)CCC(=O)NCC(=O)Nc2cccc3c4c([nH]c23)[C@@H]2Oc3c(O)ccc5c3[C@@]23CCN(CC2CC2)[C@H](C5)[C@]3(O)C4)c1
0.44

Name the recorded ED50 of the compound listed here: CN(C(=O)Cc1ccc(Cl)c(Cl)c1)[C@H](CN1CCCC1)c1cccc(NC(=O)CNC(=O)CNC(=O)CCCCC(=O)NCC(=O)NCC(=O)Nc2cccc3c4c([nH]c23)[C@@H]2Oc3c(O)ccc5c3[C@@]23CCN(CC2CC2)[C@H](C5)[C@]3(O)C4)c1
0.5

Name the recorded ED50 of the compound listed here: CNC(=O)CNC(=O)CNC(=O)CCC(=O)NCC(=O)NCC(=O)Nc1cccc([C@@H](CN2CCCC2)N(C)C(=O)Cc2ccc(Cl)c(Cl)c2)c1
0.11

Name the recorded ED50 of the compound listed here: CN(C(=O)Cc1ccc(Cl)c(Cl)c1)[C@H](CN1CCCC1)c1cccc(NC(=O)CNC(=O)CNC(=O)CCC(=O)NCC(=O)NCC(=O)Nc2cccc3c4c([nH]c23)[C@@H]2Oc3c(O)ccc5c3[C@@]23CCN(CC2CC2)[C@H](C5)[C@]3(O)C4)c1
0.19

Name the recorded ED50 of the compound listed here: CNC(=O)CNC(=O)CCC(=O)NCC(=O)Nc1cccc([C@@H](CN2CCCC2)N(C)C(=O)Cc2ccc(Cl)c(Cl)c2)c1
1.4
